# Experimental protocol: AUC (0 to t) in ICR mouse plasma at 100 mg/kg, po administered via gavage measured after 0.25 to 24 hrs by UPLC/MS analysis
# Type: ADME, organism-based
# Parameters: time upper 24 hr, dose 100 mg/kg, time lower 0.25 hr, route oral
Property measured: AUC(0-t) (ng·h/mL)
Number in ng·h/mL, nothing else.

Input: What value of AUC(0-t) has been recorded for this entry: Cc1ccc(-n2nc(C(=O)N3C[C@@H](C)N[C@@H](C)C3)nc2-c2ccc3c(c2)N(C2CCCC2)[C@H](C)C(=O)N3C)cc1
Output: 80600

----------
# Experimental protocol: Half life in rat plasma at 10 mg/kg, po
# Assay type: ADME, organism-based
Property measured: half-life (h)
Number in h, nothing else.

Input: What value of half-life has been recorded for this entry: Cc1ccc(-n2nc(C(=O)N3C[C@@H](C)N[C@@H](C)C3)nc2-c2ccc3c(c2)N(C2CCCC2)[C@H](C)C(=O)N3C)cc1
Output: 5

----------
# Study system: CYP2C19 (Homo sapiens)
# Sequence (P33261 whole entry): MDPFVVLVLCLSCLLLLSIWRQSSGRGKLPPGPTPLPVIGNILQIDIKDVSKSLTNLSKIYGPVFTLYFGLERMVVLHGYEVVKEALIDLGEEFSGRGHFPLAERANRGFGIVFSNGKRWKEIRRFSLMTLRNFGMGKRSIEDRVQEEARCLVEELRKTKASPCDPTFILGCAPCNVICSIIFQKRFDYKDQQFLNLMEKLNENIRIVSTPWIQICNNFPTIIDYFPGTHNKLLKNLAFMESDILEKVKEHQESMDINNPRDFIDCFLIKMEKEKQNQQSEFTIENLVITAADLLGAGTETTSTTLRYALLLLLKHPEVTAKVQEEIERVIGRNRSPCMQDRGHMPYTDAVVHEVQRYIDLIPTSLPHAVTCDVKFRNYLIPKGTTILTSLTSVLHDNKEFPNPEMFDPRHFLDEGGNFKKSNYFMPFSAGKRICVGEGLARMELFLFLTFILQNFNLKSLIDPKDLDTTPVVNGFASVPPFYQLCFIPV
# Experimental protocol: Reversible inhibition of CYP2C19 in human liver microsomes at 10 uM using mephenytoin as substrate preincubated for 5 mins followed by NADPH generating system addition and measured after 20 mins relative to control
# Format: ADME
# Study conditions: probe mephenytoin
Reported inhibition at 20 min, 10 µM values for the following molecules.

molecule="Cc1ccc(-n2nc(C(=O)N3CCN(C)CC3)nc2-c2ccc3c(c2)N(C2CC2)C(C)C(=O)N3C)cc1 (stereo not drawn)" property_measured="inhibition at 20 min, 10 µM" reported_result=17%

Input: What value of inhibition at 20 min, 10 µM has been recorded for this entry: Cc1ccc(-n2c(C)nnc2-c2ccc3c(c2)N(C2CC2)C(C)C(=O)N3C)cc1 (stereo not drawn)
Output: 41%

Input: Next entry: Cc1ccc(-n2nc(C(=O)N3CCN(C)CC3)nc2-c2ccc3c(c2)N(C2CCCC2)[C@H](C)C(=O)N3C)cc1
Output: 19%

----------
# Study system: UniProt P05177
# Sequence (P05177 whole entry): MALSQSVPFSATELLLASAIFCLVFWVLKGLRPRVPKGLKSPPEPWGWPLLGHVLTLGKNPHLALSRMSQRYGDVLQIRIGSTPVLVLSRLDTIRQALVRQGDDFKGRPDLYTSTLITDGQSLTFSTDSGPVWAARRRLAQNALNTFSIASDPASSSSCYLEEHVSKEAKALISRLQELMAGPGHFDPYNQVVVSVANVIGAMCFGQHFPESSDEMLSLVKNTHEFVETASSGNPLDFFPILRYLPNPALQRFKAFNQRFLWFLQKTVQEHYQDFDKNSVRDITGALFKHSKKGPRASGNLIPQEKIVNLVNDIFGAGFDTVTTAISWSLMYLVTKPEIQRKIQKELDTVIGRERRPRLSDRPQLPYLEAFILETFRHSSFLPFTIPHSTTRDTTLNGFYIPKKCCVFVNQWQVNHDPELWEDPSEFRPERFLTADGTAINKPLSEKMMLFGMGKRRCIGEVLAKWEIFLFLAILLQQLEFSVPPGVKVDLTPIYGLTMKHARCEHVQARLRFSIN
# Experimental protocol: Reversible inhibition of CYP1A2 in human liver microsomes at 10 uM using phenacetin as substrate preincubated for 5 mins followed by NADPH generating system addition and measured after 20 mins relative to control
# Type: ADME
# Study conditions: probe phenacetin
Property measured: inhibition at 20 min, 10 µM (%)
Number in %, nothing else.

Input: What value of inhibition at 20 min, 10 µM has been recorded for this entry: Cc1ccc(-n2nc(C(=O)N3CCN(C)CC3)nc2-c2ccc3c(c2)N(C2CC2)C(C)C(=O)N3C)cc1 (stereo unspecified)
Output: 2

----------
# Experimental protocol: AUC (0 to t) in ICR mouse at 10 mg/kg, po administered via gavage measured after 0.25 to 24 hrs by UPLC/MS analysis
# Assay type: ADME, organism-based
# Parameters: time 0.25-24 hr, dose 10 mg/kg, route oral
# Study conditions: in vivo
Reported AUC(0-t) values for the following compounds.
Number in ng·h/mL, nothing else.

# example entries with known answers
compound=Cc1ccc(-n2nc(C(=O)N3C[C@@H](C)N[C@@H](C)C3)nc2-c2ccc3c(c2)N(C2CCCC2)[C@H](C)C(=O)N3C)cc1 unit_symbol=ng·h/mL reported_result=7380
compound=Cc1ccc(-n2nc(C(=O)N3CCN(C)CC3)nc2-c2ccc3c(c2)N(C2CCCC2)[C@H](C)C(=O)N3C)cc1 unit_symbol=ng·h/mL reported_result=58100
compound="Cc1ccc(-n2nc(C(=O)N3CCN(C)CC3)nc2-c2ccc3c(c2)N(C2CC2)C(C)C(=O)N3C)cc1 (stereo not given)" unit_symbol=ng·h/mL reported_result=2740
compound=Cc1ccc(-n2nc(C(=O)N3CCN(C)CC3)nc2-c2ccc3c(c2)N(C2CCCC2)[C@H](C)C(=O)N3C)cc1F unit_symbol=ng·h/mL reported_result=8150

Turning now to a further compound:
Input: What value of AUC(0-t) has been recorded for this entry: Cc1ccc(-n2cnnc2-c2ccc3c(c2)N(C2CC2)C(C)C(=O)N3C)cc1 (stereo not given)
Output: 161

----------
# Experimental protocol: Tmax in ICR mouse plasma at 100 mg/kg, po administered via gavage measured after 0.25 to 24 hrs by UPLC/MS analysis
# Format: ADME, organism-based
Property measured: Tmax (h)
Number in h, nothing else.

Input: What value of Tmax has been recorded for this entry: Cc1ccc(-n2nc(C(=O)N3C[C@@H](C)N[C@@H](C)C3)nc2-c2ccc3c(c2)N(C2CCCC2)[C@H](C)C(=O)N3C)cc1
Output: 1.5

----------
# Experimental protocol: AUC (0 to infinity) in ICR mouse plasma at 50 mg/kg, po administered via gavage measured after 0.25 to 24 hrs by UPLC/MS analysis
# Format: ADME, organism-based
# Design: dose 50 mg/kg, route oral, time infinity
Property measured: AUC(0-inf)
Provide a numeric answer, followed by its unit.

Input: What value of AUC(0-inf) has been recorded for this entry: Cc1ccc(-n2nc(C(=O)N3C[C@@H](C)N[C@@H](C)C3)nc2-c2ccc3c(c2)N(C2CCCC2)[C@H](C)C(=O)N3C)cc1
Output: 16800 ng·h/mL

----------
# Experimental protocol: Half life in ICR mouse at 10 mg/kg, po administered via gavage measured after 0.25 to 24 hrs by UPLC/MS analysis
# Assay type: ADME, organism-based
# Study conditions: in vivo
Reported half-life values for the following compounds.
Provide a numeric answer, followed by its unit.

# example entries with known answers
compound="Cc1ccc(-n2cnnc2-c2ccc3c(c2)N(C2CC2)C(C)C(=O)N3C)cc1 (stereo not given)" reported_result="1.5 h"
compound="Cc1ccc(-n2nc(C(=O)N3CCN(C)CC3)nc2-c2ccc3c(c2)N(C2CC2)C(C)C(=O)N3C)cc1 (stereo not given)" reported_result="1.7 h"

Input: What value of half-life has been recorded for this entry: Cc1ccc(-n2nc(C(=O)N3C[C@@H](C)N[C@@H](C)C3)nc2-c2ccc3c(c2)N(C2CCCC2)[C@H](C)C(=O)N3C)cc1
Output: 2.1 h

Input: Next entry: Cc1ccc(-n2nc(C(=O)N3CCN(C)CC3)nc2-c2ccc3c(c2)N(C2CCCC2)[C@H](C)C(=O)N3C)cc1F
Output: 1.5 h

Input: Next entry: Cc1ccc(-n2nc(C(=O)N3CCN(C)CC3)nc2-c2ccc3c(c2)N(C2CCCC2)[C@H](C)C(=O)N3C)cc1
Output: 0.6 h

----------
# Experimental protocol: Tmax in dog plasma at 3 mg/kg, po
# Assay type: ADME, organism-based, Canis lupus familiaris
Property measured: Tmax (min)
Number in min, nothing else.

Input: What value of Tmax has been recorded for this entry: Cc1ccc(-n2nc(C(=O)N3C[C@@H](C)N[C@@H](C)C3)nc2-c2ccc3c(c2)N(C2CCCC2)[C@H](C)C(=O)N3C)cc1
Output: 30

----------
# Study system: Histone acetyltransferase p300 (Homo sapiens)
# Experimental protocol: Inhibition of EP300 (unknown origin) at 1 uM
Activity calls are given as the source filed them. No cut-off for these calls is given here.
Property measured: inhibition

# example entries with known answers
compound=Cc1ccc(-n2nc(C(=O)N(C)CCN(C)C)nc2-c2ccc3c(c2)N(C2CCCC2)[C@H](C)C(=O)N3C)cc1 property_measured=inhibition reported_result=inactive
compound=Cc1ccc(-n2nc(C(=O)N3C[C@@H](C)N[C@@H](C)C3)nc2-c2ccc3c(c2)N(C2CCCC2)[C@H](C)C(=O)N3C)cc1 property_measured=inhibition reported_result=inactive
compound=Cc1ccc(-n2nc(C(=O)N3C4CCC3CN(C)C4)nc2-c2ccc3c(c2)N(C2CCCC2)[C@H](C)C(=O)N3C)cc1 property_measured=inhibition reported_result=inactive
compound=Cc1ccc(-n2nc(C(=O)N3CCCN(C)CC3)nc2-c2ccc3c(c2)N(C2CCCC2)[C@H](C)C(=O)N3C)cc1 property_measured=inhibition reported_result=inactive
compound=Cc1ccc(-n2c(C)nnc2-c2ccc3c(c2)N(C2CCCC2)[C@H](C)C(=O)N3C)cc1 property_measured=inhibition reported_result=inactive
compound="Cc1ccc(-n2c(C)nnc2-c2ccc3c(c2)N(C2CC2)C(C)C(=O)N3C)cc1 (stereo not given)" property_measured=inhibition reported_result=inactive
compound=Cc1ccc(-n2nc(C(=O)N3CCN(C)CC3)nc2-c2ccc3c(c2)N(C2CCCC2)[C@H](C)C(=O)N3C)cc1 property_measured=inhibition reported_result=inactive
compound="Cc1ccc(-n2nc(C(=O)N3CCN4CCCC4C3)nc2-c2ccc3c(c2)N(C2CCCC2)[C@H](C)C(=O)N3C)cc1 (stereo not given in full)" property_measured=inhibition reported_result=inactive
compound=Cc1ccc(-n2nc(C(=O)N3CC4CCC(C3)N4C)nc2-c2ccc3c(c2)N(C2CCCC2)[C@H](C)C(=O)N3C)cc1 property_measured=inhibition reported_result=inactive

Turning now to a further compound:
Input: What value of inhibition has been recorded for this entry: Cc1ccc(-n2nc(C(=O)N3CCN(C)CC3)nc2-c2ccc3c(c2)N(C2CCCC2)[C@H](C)C(=O)N3C)cc1F
Output: inactive
